In this section, each of the sequences is paired with its reported IC50.
# target.of.assay: HLA-A*02:06
# assay.summary: IEDB peptide-MHC binding, purified MHC/competitive/radioactivity; bounds were set here for any values at or beyond the usual limits of such assays
# run.conditions: source organism: Vaccinia virus WR
Answer format: numeric, nM implied, no suffix.

- sequence.record: "STFNMWREI"
  measured.result: 95
- sequence.record: "GVCYYLLMHL"
  measured.result: 128
- sequence.record: "ILRNYLRLYI"
  measured.result: 65
- sequence.record: "YASLTTIGTI"
  measured.result: 84
- sequence.record: "KQYDSTDFKM"
  measured.result: 107

QUERY: Entry RTNDLTALL : reported IC50 = ?
RESULT: 119

----------
# target.of.assay: HLA-A*02:06
# assay.summary: IEDB peptide-MHC binding, purified MHC/competitive/radioactivity; bounds were set here for any values at or beyond the usual limits of such assays
# run.conditions: source organism: SARS-CoV1
# pIC50 listing for each entry below
The scale used: pIC50 is minus the common logarithm of the concentration in molar units.

- sequence.record: "YIFFASFYYI"
  measured.result: 9.10
- sequence.record: "VLTHGLASV"
  measured.result: 8.85
- sequence.record: "GLMWLSYFV"
  measured.result: 9.01

# ---- query sequence ----
QUERY: Request: pIC50, test system HLA-A*02:06, entry FLAFLLFLV
RESULT: 8.05

----------
# target.of.assay: HLA-A*02:01
# assay.summary: IEDB peptide-MHC binding, purified MHC/competitive/radioactivity; bounds were set here for any values at or beyond the usual limits of such assays
# run.conditions: source organism: Vaccinia virus WR
This listing pairs sequences with measured log10(IC50).
Kindly note that the scale is log10 and the underlying IC50 is in nM.

These solved cases illustrate the format of a correct answer.
- sequence.record: "TIIFVLISI"
  target.of.assay: "HLA-A*02:01"
  readout.type: "log10(IC50)"
  measured.result: 3.07
- sequence.record: "YTVEFDRDKV"
  target.of.assay: "HLA-A*02:01"
  readout.type: "log10(IC50)"
  measured.result: 2.97
- sequence.record: "YLSKEDRII"
  target.of.assay: "HLA-A*02:01"
  readout.type: "log10(IC50)"
  measured.result: 3.18

QUERY: Which log10(IC50) is reported for this sequence? VTLFIDRGSI
RESULT: 3.18

QUERY: Recorded log10(IC50) of GIADIRDKYM , please.
RESULT: 3.04

QUERY: For the sequence SLDSLVHLL , what log10(IC50) is on record?
RESULT: 0.52

QUERY: Suppose we examine the sequence GTSVIRSNI ; what log10(IC50) value has been reported?
RESULT: 2.82

QUERY: Which value of log10(IC50) has been reported for YLGHSAGFTA in the records?
RESULT: 1.32

----------
# target.of.assay: HLA-A*02:02
# assay.summary: IEDB peptide-MHC binding, cellular MHC/competitive/fluorescence; bounds were set here for any values at or beyond the usual limits of such assays
# run.conditions: source organism: Vaccinia virus WR
pIC50 values, listed per item
Scale note: pIC50 = -log10(concentration in M).

- sequence.record: "ELVMDKNHAI"
  pIC50: 4.85
- sequence.record: "VTPEYIKDL"
  pIC50: 4.98
- sequence.record: "PTPKKMNIVT"
  pIC50: 4.18

QUERY: I'm curious: which pIC50 was measured for NVTYNIKPV tested on HLA-A*02:02?
RESULT: 4.64

QUERY: Hello, I am looking for reported pIC50 with HLA-A*02:02 for YIKDLKHAT . Could you help?
RESULT: 4.73

QUERY: Notebook entry, HLA-A*02:02 assay: pIC50 of NIYRLFTRCA = ?
RESULT: 5.00

QUERY: Record PANINDKQIM : what is its pIC50 with HLA-A*02:02?
RESULT: 4.31

----------
# target.of.assay: HLA-A*02:06
# assay.summary: IEDB peptide-MHC binding, purified MHC/competitive/radioactivity; bounds were set here for any values at or beyond the usual limits of such assays
# run.conditions: source organism: Vaccinia virus WR
pIC50: −log10 of the molar value.
# if value of pIC50 reaches 6, tag criterion met; if it stays below, tag criterion not met

Solved entries:
- sequence.record: "ILISLINSLV"
  discrete.label: "criterion met"
- sequence.record: "GLDERFVEEL"
  discrete.label: "criterion not met"
- sequence.record: "GAFMYTKHSM"
  discrete.label: "criterion not met"

QUERY: In plain terms: is recorded pIC50 at least 6 for ITPNNLNKI ?
RESULT: criterion met

QUERY: Is reported pIC50 greater than or equal to 6 here: IAVITETIPI
RESULT: criterion met

QUERY: Does KLFTHDIML have a reported pIC50 of at least 6?
RESULT: criterion met

QUERY: Please indicate if the recorded pIC50 for NVISKIYTLI meets or exceeds 6.
RESULT: criterion met

QUERY: Quick check, pIC50 >= 6? RIEDMFLTSV
RESULT: criterion met

QUERY: Please check the record IISTDQDTM and state if its pIC50 is at or above 6.
RESULT: criterion not met

QUERY: Check this sequence for pIC50 at or above 6: NITPDDGLGL
RESULT: criterion not met

QUERY: Is the recorded value of pIC50 equal to or greater than 6 for this sequence? NTDHPLSINV
RESULT: criterion met

QUERY: Check if pIC50 >= 6 (inclusive). Item: SLDQTHIKTI
RESULT: criterion not met

QUERY: Does GTKGKLYIA have a reported pIC50 of at least 6?
RESULT: criterion not met

QUERY: Is it the case that SAGFTATICL has pIC50 reaching or exceeding 6?
RESULT: criterion not met

QUERY: Please indicate if the recorded pIC50 for TTENAAYQV meets or exceeds 6.
RESULT: criterion met

----------
# target.of.assay: HLA-A*68:01
# assay.summary: IEDB peptide-MHC binding, cellular MHC/competitive/fluorescence; bounds were set here for any values at or beyond the usual limits of such assays
# run.conditions: source organism: Hepatitis B virus
readout.type: IC50

QUERY: Quick check: IC50 of CLRRFIIFL ?
RESULT: ≥ 70 µM

QUERY: # get_value(readout='IC50', item= FLLAQFTSAI )
RESULT: 23.6 µM

QUERY: Report IC50 for PLLPIFFCL please.
RESULT: 44.2 µM

QUERY: Quick one: IC50 for SMYPSCCCT ?
RESULT: ≥ 70 µM

QUERY: Need IC50, item RVRGLYFPA
RESULT: ≥ 70 µM

QUERY: Could you tell me which IC50 is on file for WLSLLVPFV ?
RESULT: ≥ 70 µM

QUERY: # get_value(readout='IC50', item= LLVPFVQWFV )
RESULT: 45.2 µM

QUERY: # get_value(readout='IC50', item= SLYADSPSV )
RESULT: ≥ 70 µM

QUERY: Bench note: what IC50 did GMLPVCPLI show?
RESULT: ≥ 70 µM

QUERY: If you can, please state the reported IC50 value of ILLLCLIFL .
RESULT: 30.3 µM

QUERY: Field request: IC50 | item: FLLTRILTI
RESULT: ≥ 70 µM

QUERY: Which IC50 is listed for ILRGTSFVYV ?
RESULT: ≥ 70 µM

QUERY: Recorded IC50 for FLFILLLCL , please?
RESULT: 26.9 µM

QUERY: So what does the record say about IC50 for VLLDYQGML ?
RESULT: ≥ 70 µM

QUERY: Fill blank: measured IC50 of the sequence GLLGWSPQA is ____.
RESULT: ≥ 70 µM

QUERY: Fill in the blank: the reported IC50 of LLVLLDYQGM is ____.
RESULT: ≥ 70 µM

QUERY: Recorded IC50 for FLPSDFFPSV , please?
RESULT: ≥ 70 µM

----------
Reported pIC50 values follow for various sequences
# target.of.assay: HLA-A*68:02
# assay.summary: IEDB peptide-MHC binding, cellular MHC/competitive/fluorescence; bounds were set here for any values at or beyond the usual limits of such assays
# run.conditions: source organism: Vaccinia virus WR
Keep it numeric: pIC50 is minus log10 of the concentration in mol/L.

Look over these answered cases.
- sequence.record: "LLLENKSLTI"
  readout.type: "pIC50"
  measured.result: 5.02
- sequence.record: "PTWLGAAITL"
  readout.type: "pIC50"
  measured.result: 5.13
- sequence.record: "ILFQNNDINA"
  readout.type: "pIC50"
  measured.result: 5.00
- sequence.record: "NMKPNFWSRI"
  readout.type: "pIC50"
  measured.result: 4.88
- sequence.record: "IQYRQQLELA"
  readout.type: "pIC50"
  measured.result: 4.89

QUERY: Entry LATLNTLIT has what pIC50?
RESULT: 4.86

QUERY: Requested read-out: pIC50. Entry: YQNEVTPEYI
RESULT: 5.07

QUERY: Tell me the measured pIC50 of FLQISRVNDL , please.
RESULT: 5.13

QUERY: Entry under review: ILDNLRCHSA . Reported pIC50?
RESULT: 4.89

QUERY: Find the recorded pIC50 belonging to SLVKESMASL and report it.
RESULT: 5.10

QUERY: Quick one: pIC50 for QTGINNVQSL ?
RESULT: 4.94

QUERY: Find the recorded pIC50 belonging to KLYGYASLT and report it.
RESULT: 4.96
